Test system: Cryptococcus neoformans
Test: Antifungal activity against Cryptococcus neoformans ATCC 36556 assessed as reduction in growth after 48 hrs by broth microdilution method relative to control
Type: functional
Please respond with reported inhibition (INH) for every item in the list.

Lookup: Can you look up the measured inhibition (INH) of CC(=O)O[C@@H]1C[C@@H]2CC[C@@H]3[C@H](CC[C@]4(C)[C@@H]5[C@H](C[C@@H]34)O[C@]3(CC[C@@H](C)CO3)[C@H]5C)[C@@]2(C)C[C@@H]1O for me?
Found: <25%

Lookup: What would you report for CC(=O)O[C@H]1C[C@@]2(C)[C@@H](CC[C@@H]3[C@@H]2CC[C@]2(C)[C@@H]4[C@H](C[C@@H]32)O[C@]2(CC[C@@H](C)CO2)[C@H]4C)C[C@H]1O ?
Found: <25%

Lookup: What would you report for CC(=O)O[C@H]1C[C@@H]2CC[C@@H]3[C@H](CC[C@]4(C)[C@@H]5[C@H](C[C@@H]34)O[C@]3(CC[C@@H](C)CO3)[C@H]5C)[C@@]2(C)C[C@@H]1O ?
Found: <25%

Lookup: What would you report for C[C@@H]1CC[C@@]2(OC1)O[C@H]1C[C@H]3[C@@H]4CC[C@H]5C[C@@H](O)CC[C@]5(C)[C@H]4CC[C@]3(C)[C@H]1[C@@H]2C [TIGOGENIN] ?
Found: <25%

Lookup: What would you report for CC(=O)O[C@@H]1C[C@@]2(C)[C@@H](CC[C@@H]3[C@@H]2CC[C@]2(C)[C@@H]4[C@H](C[C@@H]32)O[C@]2(CC[C@@H](C)CO2)[C@H]4C)CC1=O ?
Found: <25%

Lookup: What would you report for C[C@@H]1CC[C@@]2(OC1)O[C@H]1C[C@H]3[C@@H]4CC[C@H]5CC(=O)CC[C@]5(C)[C@H]4CC[C@]3(C)[C@H]1[C@@H]2C ?
Found: <25%

Lookup: What would you report for C[C@@H]1CC[C@@]2(OC1)O[C@H]1C[C@H]3[C@@H]4CC[C@H]5C[C@@H](O)[C@H](O)C[C@]5(C)[C@H]4CC[C@]3(C)[C@H]1[C@@H]2C ?
Found: <25%

Lookup: What would you report for CC(=O)O[C@H]1C[C@@]2(C)[C@@H](CC[C@@H]3[C@@H]2CC[C@]2(C)[C@@H]4[C@H](C[C@@H]32)O[C@]2(CC[C@@H](C)CO2)[C@H]4C)C[C@@H]1O ?
Found: <25%

src = ChEMBL document CHEMBL1770147
